What percent effect (mortality or growth inhibition) at 200 ppm was measured for each of the following?
# Test system: Diabrotica balteata (Corn root worm)
# Protocol description: Example B4: Diabrotica balteata, maize sprouts sprayed
# Type: in vivo
# Conditions: 96 h, application rate 200 ppm, L2 larvae, 4 days after infestation, read-out: effect in at least one of the two categories (mortality or growth inhibition)

Here's what some known entries look like.
>>> print(df.to_string())
                                   molecule  reported_measurement
0  CCS(=O)(=O)c1cc(C(C)(C)C#N)ccc1-c1nc2cc(C(F)(F)F)nnc2n1C                 ≥ 80%
1  CCS(=O)(=O)c1cc(C(C#N)C(C)C)cnc1-c1nc2cc(C(F)(F)F)ncc2n1C (centres unmarked)                 ≥ 80%
2  CCS(=O)(=O)c1cc(C(C)(C)C#N)cnc1-c1nc2cc(C(F)(F)F)nnc2n1C [Compound P2]                 ≥ 80%
3  CCS(=O)(=O)c1cc(C(C)(C)C#N)cnc1-c1nc2cc(C(F)(F)F)ncc2n1C                 ≥ 80%
4  CCC(C#N)c1cnc(-c2nc3cc(C(F)(F)F)ncc3n2C)c(S(=O)(=O)CC)c1 (centres unmarked)                 ≥ 80%

Take each entry in turn and give its percent effect (mortality or growth inhibition) at 200 ppm.
1. CCS(=O)(=O)c1cc(C(C)C#N)cnc1-c1nc2cc(C(F)(F)F)ncc2n1C (centres unmarked)
2. CCSc1cc(C(C)(C)C#N)ccc1-c1nc2cc(C(F)(F)F)nnc2n1C
3. CCS(=O)(=O)c1cc(C(F)(F)C#N)cnc1-c1nc2cc(C(F)(F)F)ncc2n1C
4. CCS(=O)(=O)c1cc(C(C)(C)C#N)ccc1-c1nc2cc(C(F)(F)F)ncc2n1C
5. CCSc1cc(C(C)(C)C#N)ccc1-c1nc2cc(C(F)(F)F)ncc2n1C
6. CCC(C#N)(CC)c1cnc(-c2nc3cc(C(F)(F)F)ncc3n2C)c(S(=O)(=O)CC)c1

1: ≥ 80%; 2: ≥ 80%; 3: ≥ 80%; 4: ≥ 80%; 5: ≥ 80%; 6: ≥ 80%
